experiment: Observed clearance in ICR mouse at 1 mg/kg, iv measured for 0.05 to 24 hrs by UPLC-MS/MS analysis; assay type: ADME, organism-based; settings: in vivo, time 0.05-24 hrs
Quantity: clearance (mL/min/kg)
Answers are plain numbers, in mL/min/kg.

Entry `CC(=O)c1cccc(NS(=O)(=O)c2ccc(C(=O)Nc3nc(-c4cccc(F)c4)cs3)cc2)c1` has what clearance?
0.48

----------
target: D-3-phosphoglycerate dehydrogenase (Homo sapiens); assay: Inhibition of PHGDH (unknown origin) preincubated for 30 mins followed by substrate addition and measured after 5 mins
Sequence (O43175 whole entry): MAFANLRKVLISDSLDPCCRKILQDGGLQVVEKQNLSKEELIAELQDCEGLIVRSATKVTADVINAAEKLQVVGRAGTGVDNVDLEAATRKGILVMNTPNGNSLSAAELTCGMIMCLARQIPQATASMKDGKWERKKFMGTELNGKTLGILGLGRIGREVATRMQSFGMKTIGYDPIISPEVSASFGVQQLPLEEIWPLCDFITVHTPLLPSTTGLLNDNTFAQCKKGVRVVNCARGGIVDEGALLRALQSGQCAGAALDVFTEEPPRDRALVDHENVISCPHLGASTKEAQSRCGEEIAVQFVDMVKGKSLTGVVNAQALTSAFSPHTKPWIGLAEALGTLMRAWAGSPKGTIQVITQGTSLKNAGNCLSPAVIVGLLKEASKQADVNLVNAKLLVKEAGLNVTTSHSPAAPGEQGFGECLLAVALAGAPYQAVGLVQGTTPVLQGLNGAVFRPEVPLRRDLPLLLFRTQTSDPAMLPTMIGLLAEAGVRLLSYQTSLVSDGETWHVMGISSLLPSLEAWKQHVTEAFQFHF
Please go through the items and note down their pIC50.
Give bare numbers, as −log10 of the molar value.

# example entries with known answers
- Line notation: "CN1CCN(c2cccc(NS(=O)(=O)c3ccc(C(=O)Nc4nc(-c5ccccc5)cs4)cc3)c2)CC1"
  pIC50: 5.21
- Line notation: "CC(=O)c1cccc(NS(=O)(=O)c2ccc(C(=O)Nc3cc(-c4ccccc4)cs3)cc2)c1"
  pIC50: 4.89
- Line notation: "Cc1cc(Cl)c2cc(C(=O)N[C@H](CO)c3ccc(S(=O)(=O)CC(=O)O)cc3)n(C)c2c1"
  pIC50: 6.97

// input: 5 molecules below; output: pIC50 for each
1. O=C(Nc1nc(-c2ccccc2)cs1)c1ccc(S(=O)(=O)O)cc1
2. CC(=O)N1CCC(NS(=O)(=O)c2ccc(C(=O)Nc3nc(-c4ccccc4)cs3)cc2)CC1
3. COC(=O)CS(=O)(=O)c1ccc([C@@H](CO)NC(=O)c2cc3c(Cl)cc(C)cc3n2C)cc1
4. CC(=O)c1cccc(NS(=O)(=O)c2ccc(C(=O)Nc3nc(-c4ccccc4F)cs3)cc2)c1
5. O=C(O)CNS(=O)(=O)c1ccc(C(=O)Nc2nc(-c3ccccc3)cs2)cc1

1: 4.90; 2: 5.17; 3: 6.79; 4: 5.42; 5: 4.80

----------
molecular target: D-3-phosphoglycerate dehydrogenase (Homo sapiens); test: Competitive inhibition of PHGDH (unknown origin) assessed as inhibition constant using 3-PG as substrate preincubated for 30 mins followed by substrate addition and measured after 5 mins by Lineweaver-Burk plot analysis
Quantity: Ki (µM)
Give bare numbers, in µM.

State its Ki on D-3-phosphoglycerate dehydrogenase (Homo sapiens): `CC(=O)c1cccc(NS(=O)(=O)c2ccc(C(=O)Nc3nc(-c4cccc(F)c4)cs3)cc2)c1`
14.9

----------
test: Drug exposure in BALB/c nude mouse plasma at 25 mg/kg, ip measured for 0.5 to 4 hrs; type: ADME, organism-based; details: in vivo, time 0.5-4 hrs
Quantity: concentration (µM)
Numbers only, in µM.

Given `CC(=O)c1cccc(NS(=O)(=O)c2ccc(C(=O)Nc3nc(-c4cccc(F)c4)cs3)cc2)c1` , state its recorded concentration.
30.8

----------
biological target: D-3-phosphoglycerate dehydrogenase (Homo sapiens); test: Inhibition of PHGDH (unknown origin) preincubated for 30 mins followed by substrate addition and measured after 5 mins
Quantity: IC50 (µM)
Numbers only, in µM.

Example cases with answers are listed next.
- Line notation: "Cc1cc(C)nc(NS(=O)(=O)c2ccc(C(=O)Nc3nc(-c4ccccc4)cs3)cc2)n1"
  IC50 / µM: 3.19
- Line notation: "O=C(Nc1nc(-c2ccccc2)cs1)c1ccc(S(=O)(=O)Nc2cccc(CCO)c2)cc1"
  IC50 / µM: 7.49

Value sought for every listed compound: IC50.
1. COc1cccc(-c2csc(NC(=O)c3ccc(S(=O)(=O)Nc4cccc(C(C)=O)c4)cc3)n2)c1
2. O=C(Nc1nc(-c2ccccc2)cs1)c1ccc(S(=O)(=O)Nc2cccc(CO)c2)cc1
3. COCCNS(=O)(=O)c1ccc(C(=O)Nc2nc(-c3ccccc3)cs2)cc1

1. 4.8
2. 7.74
3. 17.8
